Tested on: HCT-116 colon
Experimental details: NCI tumour cell line growth inhibition, 48 h
We begin with a simple list: items and their reported TGI.

>  <Compound>
O=C(N/N=C/c1ccc(Br)cc1)N/N=C/c1ccc(Br)cc1

>  <TGI>
> 100 µM

$$$$
>  <Compound>
C=C1C(O)CC[C@]2(C)C1C1OC(C)(C)O[C@]13CC(=O)C(C)=C([C@H]1OC(C)(C)OC12)C3(C)C (some centres not stated)

>  <TGI>
> 100 µM

$$$$
>  <Compound>
O=C(N/N=C/c1ccccc1O)c1ccccc1

>  <TGI>
5.19 µM

$$$$
>  <Compound>
C1=C\SS/C=C\SS/1

>  <TGI>
> 100 µM

$$$$
>  <Compound>
O=C(O)[C@@H](Cc1ccc2ccccc2c1)NC(=O)n1c2ccccc2c2ccccc21

>  <TGI>
11.8 µM

$$$$
>  <Compound>
COC(=O)C1(Cc2ccc3c(c2)CCC3)Cc2ccccc2C1

>  <TGI>
> 100 µM

$$$$
>  <Compound>
Cc1ccccc1C(=O)N1CCN(C(=O)c2ccccc2C)CC1

>  <TGI>
> 100 µM

$$$$
>  <Compound>
COC(=O)c1cc(C#N)[nH]c1-c1cc(Br)cs1

>  <TGI>
28.3 µM

$$$$
>  <Compound>
CC12CCCC3(CC(=O)C(C)(C)C3C(=O)C1)C2 (configuration not stated)

>  <TGI>
> 100 µM

$$$$
>  <Compound>
CSC(=NCCc1c[nH]c2ccccc12)NC#N

>  <TGI>
> 100 µM

$$$$
>  <Compound>
CCOC(=O)c1nnsc1NN

>  <TGI>
> 100 µM

$$$$
>  <Compound>
O=C(O)[C@H](c1ccccc1)[C@@H](C(=O)O)c1ccccc1

>  <TGI>
> 100 µM

$$$$
>  <Compound>
COc1ccc(-c2cc(-c3ccccc3)[nH]c(=S)c2C#N)cc1

>  <TGI>
> 100 µM

$$$$
>  <Compound>
c1c[nH]c(CN2CCOCC2)n1

>  <TGI>
> 100 µM

$$$$
>  <Compound>
C(=N\Nc1nnn(Cc2ccccc2)n1)/c1ccccc1

>  <TGI>
> 73.3 µM

$$$$
>  <Compound>
CC1(C)CC2C(=O)c3ccccc3NC2c2ccccc21 (configuration not stated)

>  <TGI>
> 100 µM

$$$$
>  <Compound>
C=C1C[C@@H]2CC[C@@]34C[C@H]5O[C@H]6[C@@H](O3)[C@H]3O[C@H](CC[C@@H]3O[C@H]6[C@@H]5O4)CC(=O)C[C@@H]3[C@@H](OC)[C@@H](C[C@H](O)CN)O[C@H]3C[C@H]3O[C@@H](CC[C@@H]1O2)C[C@@H](C)C3=C

>  <TGI>
> 100 µM

$$$$
>  <Compound>
O=[N+]([O-])c1ccc(Sc2c3ccccc3nc3cc(Cl)ccc23)cc1

>  <TGI>
> 100 µM

$$$$
>  <Compound>
COC(=O)C1(C)Cc2cc(OC(C)=O)c(OC(C)=O)cc2N1 (configuration not stated)

>  <TGI>
15.5 µM

$$$$
>  <Compound>
[O-]/[N+](=C\c1ccccc1OC(=S)S)c1ccc(Cl)cc1

>  <TGI>
72.7 µM

$$$$
>  <Compound>
CC(C)OC(=O)OCSc1ccccc1N=Cc1cccc([N+](=O)[O-])c1

>  <TGI>
> 10 µM

$$$$
>  <Compound>
COc1ccc2[nH]c3c(c2c1)[C@H](C)C[C@@H]1C(=O)N(c2ccccc2)C(=O)[C@H]31

>  <TGI>
38.8 µM

$$$$

---

Test system: KM12 colon
Experimental details: NCI tumour cell line growth inhibition, 48 h; in the data active means GI50 below about 0.43 µM; inactive means the rest
Labels: active, inactive

>  <Compound>
Cn1cc(C2=C(c3cn(C4CCN(Cc5ccccn5)CC4)c4ccccc34)C(=O)NC2=O)c2ccccc21

>  <Assigned category>
inactive

$$$$
>  <Compound>
COC(=O)C1(C)Cc2cc(OC(C)=O)c(OC(C)=O)cc2N1 (stereo not drawn)

>  <Assigned category>
inactive

$$$$
>  <Compound>
O=C1CCCCN1CCCCC#Cc1cccc(C#Cc2cccnc2)c1

>  <Assigned category>
inactive

$$$$
>  <Compound>
Oc1ccccc1-c1nn(CNc2ccccc2Cl)c(=S)o1

>  <Assigned category>
inactive

$$$$
>  <Compound>
COc1ccc(CN2C3CC2CN(c2ccc(-c4cc(OCC(C)(C)O)cn5ncc(C#N)c45)cn2)C3)cn1

>  <Assigned category>
inactive

$$$$
>  <Compound>
CC(C)(C)OC(=O)NCCCCCCCn1c2c(c3ccccc3c1=O)C(=O)c1ccccc1-2

>  <Assigned category>
inactive

$$$$
>  <Compound>
CC(C)(C)C(=O)[CH-]C(=O)C(C)(C)C.CC(C)(C)C(=O)[CH-]C(=O)C(C)(C)C.CN(C)c1ccc([O-])cc1.CN(C)c1ccc([O-])cc1.[Ti+4]

>  <Assigned category>
inactive

$$$$
>  <Compound>
O=C1OCC2=C1C(c1ccccc1)c1cc3c(cc1N2CCO)OCO3 (stereo not drawn)

>  <Assigned category>
inactive

$$$$
>  <Compound>
CCCCn1c(-c2ccc(C(=O)O/N=C(\N)c3ccc4c(c3)OCO4)cc2)nc(-c2ccccc2)c1-c1ccccc1

>  <Assigned category>
inactive

$$$$
>  <Compound>
c1ccc2[nH]c(-c3ccc(Nc4nc(N5CCCCC5)nc(N5CCOCC5)n4)cc3)nc2c1

>  <Assigned category>
inactive

$$$$
>  <Compound>
C=C(CN(C)C)C(=O)c1ccccc1[N+](=O)[O-]

>  <Assigned category>
inactive

$$$$
>  <Compound>
CNC(=O)c1nn(C)c2c1C(C)(C)Cc1cnc(Nc3ccc(N4CCN(C)CC4)cc3)nc1-2

>  <Assigned category>
active

$$$$
>  <Compound>
Cc1ccc(-c2nc3nc(-c4ccc(F)cc4)nc(N4CCCNCC4)c3o2)cc1

>  <Assigned category>
inactive

$$$$

---

System: U251 CNS
Experimental details: NCI tumour cell line growth inhibition, 48 h

>  <Compound>
CN1/C(=C\C=C\C2=[N+](C)c3ccccc3C2(C)C)C(C)(C)c2ccccc21

>  <Test system>
U251 CNS

>  <TGI>
5.21 µM

$$$$
>  <Compound>
O=c1oc2ccccc2[n+]([O-])c1-c1ccccc1

>  <Test system>
U251 CNS

>  <TGI>
> 100 µM

$$$$
>  <Compound>
CCOC(=O)C(NC(=O)c1nc[nH]c1[N+](=O)[O-])C(C)C (stereo unspecified)

>  <Test system>
U251 CNS

>  <TGI>
> 100 µM

$$$$
>  <Compound>
Cc1c(C(=O)O)oc2ccc([N+](=O)[O-])cc12

>  <Test system>
U251 CNS

>  <TGI>
> 100 µM

$$$$
>  <Compound>
COc1ccc2c(c1)/C(=C/c1cc(OC)c(OC)c(OC)c1)C(=O)N2

>  <Test system>
U251 CNS

>  <TGI>
16.7 µM

$$$$
>  <Compound>
CC(=O)c1ccc(O)c(CN(C2CCCCC2)C2CCCCC2)c1O

>  <Test system>
U251 CNS

>  <TGI>
> 100 µM

$$$$

---

System: SNB-78 CNS
Experimental details: NCI tumour cell line growth inhibition, 48 h
Assay metric: TGI

>  <Molecule>
COc1ccc(/C(=N\NC(=S)NN)C(c2ccc(OC)cc2)C2C(=O)Oc3ccccc32)cc1 (stereo not drawn)

>  <Test system>
SNB-78 CNS

>  <Assay metric>
TGI

>  <Result>
> 100 µM

$$$$
>  <Molecule>
CN(C)CCC(=O)/C=C\c1ccccc1

>  <Test system>
SNB-78 CNS

>  <Assay metric>
TGI

>  <Result>
37.6 µM

$$$$
>  <Molecule>
Cc1c2ccccc2cc2ccc3oc([N+](=O)[O-])cc3c12

>  <Test system>
SNB-78 CNS

>  <Assay metric>
TGI

>  <Result>
> 100 µM

$$$$

---

Below, each of the molecules is paired with its reported TGI value.
Tested on: IGROV1 ovarian
Experimental details: NCI tumour cell line growth inhibition, 48 h

>  <Molecule>
CSC(=S)N/N=C/c1nccc2ccccc12

>  <Qualifier sign>
=

>  <TGI (µM)>
8.05

$$$$
>  <Molecule>
CO[C@@H]1O[C@H](C(=O)c2ccccc2)[C@H]2OC(C)(C)O[C@@H]12

>  <Qualifier sign>
>

>  <TGI (µM)>
100

$$$$
>  <Molecule>
Cc1cc(I)cc(CN(C)CCCN2CCCC2)c1O

>  <Qualifier sign>
=

>  <TGI (µM)>
44.7

$$$$
>  <Molecule>
O=c1oc2ccc(I)cc2c(=O)n1-c1ccc(Cl)cc1F

>  <Qualifier sign>
=

>  <TGI (µM)>
21.1

$$$$
>  <Molecule>
O=C1NCN(c2ccccc2)C12CCN(CCCN1CCN(CCOC(c3ccc(F)cc3)c3ccc(F)cc3)CC1)CC2

>  <Qualifier sign>
=

>  <TGI (µM)>
4.24

$$$$
>  <Molecule>
CCOC(=O)C(NC(=O)c1nc[nH]c1[N+](=O)[O-])C(C)C (stereo not drawn)

>  <Qualifier sign>
>

>  <TGI (µM)>
100

$$$$
>  <Molecule>
O=c1[nH]nc(Cc2ccccc2)n1/N=C/c1ccncc1

>  <Qualifier sign>
>

>  <TGI (µM)>
100

$$$$
>  <Molecule>
Cn1cc(C2=C(c3cn(C4CCN(Cc5ccccn5)CC4)c4ccccc34)C(=O)NC2=O)c2ccccc21

>  <Qualifier sign>
>

>  <TGI (µM)>
100

$$$$
